Ref: patent US6723741B2

Readings of Ki for the listed compounds
STUDY SYSTEM: human α2C adrenergic receptor (Homo sapiens)
Construct: The entire coding region of α2C (1383 bp), including 2 bp of 5′ UT and 400 bp of 3′ UT; expressed in transfected cells
Sequence (P18825 1-462): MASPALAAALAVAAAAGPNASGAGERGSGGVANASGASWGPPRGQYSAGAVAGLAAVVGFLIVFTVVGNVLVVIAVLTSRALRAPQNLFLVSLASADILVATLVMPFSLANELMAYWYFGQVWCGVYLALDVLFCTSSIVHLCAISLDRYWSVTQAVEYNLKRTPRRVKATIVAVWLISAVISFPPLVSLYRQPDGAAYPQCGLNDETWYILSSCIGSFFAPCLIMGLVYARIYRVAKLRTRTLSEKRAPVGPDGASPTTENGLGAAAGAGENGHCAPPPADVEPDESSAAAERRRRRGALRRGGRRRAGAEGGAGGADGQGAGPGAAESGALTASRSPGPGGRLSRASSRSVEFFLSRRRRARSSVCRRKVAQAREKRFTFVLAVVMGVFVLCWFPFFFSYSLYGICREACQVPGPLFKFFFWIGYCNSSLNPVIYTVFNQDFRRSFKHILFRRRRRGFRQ
PROTOCOL DETAILS: Radioligand binding assay, [3H]rauwolscine competition
Response body: numeric value in nM, unit text excluded.

Record request: Ki value, item Brc1cc(NC2=NCCN2)cc2cc[nH]c12
12.9

---
I'd like to know its Ki. The compound in question is c1nc2cc(NC3=NCCN3)ccc2s1
20.4

Same for Cc1cc(NC2=NCCS2)cc2cc[nH]c12
24

Please give the result for N#Cc1cc(NC2=NCCN2)cc2cc[nH]c12 too.
43.7

Can you handle CC(=O)c1cc(NC2=NCCN2)cc2cc[nH]c12 next?
117
